Items are presented alongside their recorded normalized growth.
experiment: chemical genetic growth profiling, strain panel (AID 1159580);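 further: tested at 20 µM; growth read once vehicle control cultures reached saturation at 30 °C; 1 = growth at the plate median or of vehicle wells; lower values mean less growth of the strain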; settings: S. cerevisiae deletion strains, growth OD, locus YPR163C, strain tif3, stronger effect = lower value
Among all 5,500 compounds or so, about 2,000 (36%) were called active. Not shown: some 18% with an inconclusive outcome. The list shows a part of the results.

molecule: CC1=CC(=O)C2=C(C)CC[C@@H]3[C@H](OC(=O)[C@H]3C)[C@@H]12
normalized growth: 0.978 (inactive)
//
molecule: COc1cc(OC)c2c(=O)c(OC)c(-c3ccc(OC)c(OC)c3)oc2c1
normalized growth: 1 (inactive)
//
molecule: COc1cc(OC)c2c(=O)c(O)c(-c3ccc(OC)c(OC)c3)oc2c1
normalized growth: 0.838 (active)
//
molecule: C[C@@H]1O[C@@H](OC[C@H]2OC(Oc3c(-c4ccc(OCCO)c(OCCO)c4)oc4cc(OCCO)cc(O)c4c3=O)[C@H](O)[C@@H](O)[C@@H]2O)[C@H](O)[C@H](O)[C@H]1O (stereo partly drawn)
normalized growth: 0.993 (inactive)
//
molecule: CN[C@@H]1C(O)[C@@H](O[C@@H]2[C@@H](O)[C@H](O[C@H]3OC(CN)=CC[C@H]3N)[C@@H](N)C[C@H]2N)OC[C@]1(C)O (stereo partly drawn)
normalized growth: 0.966 (inactive)
//
molecule: O=c1c(O)c(-c2cc(O)c(O)c(O)c2)oc2cc(O)cc(O)c12
normalized growth: 1.01 (inactive)
//
molecule: CCCC(C)(COC(N)=O)COC(=O)NC(C)C (stereo not drawn)
normalized growth: 0.975 (inactive)
//
molecule: CCCCCc1c2c(cc(O)c1C(=O)O)OC(=O)c1c(cc(OC)cc1C(=O)CCCC)O2
normalized growth: 0.984 (inactive)
